Where these numbers come from: paper PMC7496394

Molecular target: T1, rMDA1 (mature MDA1) (Arabidopsis thaliana, UniProt F4JVI3 44-493)
T1 sequence: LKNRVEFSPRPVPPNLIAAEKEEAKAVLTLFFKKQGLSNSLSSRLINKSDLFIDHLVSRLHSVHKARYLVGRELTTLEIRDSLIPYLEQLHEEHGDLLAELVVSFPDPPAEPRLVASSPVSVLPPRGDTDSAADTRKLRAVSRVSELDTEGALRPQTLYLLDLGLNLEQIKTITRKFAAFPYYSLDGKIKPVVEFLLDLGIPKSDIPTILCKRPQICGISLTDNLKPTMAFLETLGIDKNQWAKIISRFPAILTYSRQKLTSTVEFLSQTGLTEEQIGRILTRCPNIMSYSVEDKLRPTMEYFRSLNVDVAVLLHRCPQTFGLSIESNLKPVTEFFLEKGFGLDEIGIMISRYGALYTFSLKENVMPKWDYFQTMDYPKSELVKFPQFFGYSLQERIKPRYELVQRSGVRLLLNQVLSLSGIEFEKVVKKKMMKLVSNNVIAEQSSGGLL
Assay: EMSA
observation_type: binding result

UGGCUGAUAUUAUGACGAUAC (ssRNA) [5' ndhA sRNA] :: no binding
UCUGAUUCGAGGGGGUCCCGUUGAAC (ssRNA) [3' psbJ sRNA] :: no binding
GUUUUAAACAAGAGACAGAAACAAAGA (ssRNA) [3' ndhA sRNA] :: no binding
GUAGACUCUAAAAAUACCCUUGGUACUUU (ssRNA) [5' psbE sRNA] :: no binding
